biological target: AMPK; assay: AMPK activation, enzyme-linked immunosorbent assay; format: biochemical; details: compounds of Table 1 (Table 6)
Below, each of the compounds is paired with its reported EC50 value.

{"structure_string": "O=C(NC1CCN(Cc2ccc(N3CCOCC3)cc2)CC1)c1ccc(OC2CCN(c3ccc(C(F)(F)F)cc3)CC2)cn1", "result": "< 100 nM"}
{"structure_string": "CN(C)c1ccc(CN2CCC(NC(=O)c3ccc(OC4CCN(c5ccc(C(F)(F)F)cc5)CC4)cn3)CC2)cc1", "result": "100 to 500 nM"}
{"structure_string": "O=C(NC1CCN(Cc2ccncc2)CC1)c1cc2cc(OC3CCN(Cc4ccc(Cl)cc4)CC3)ccc2o1", "result": "100 to 500 nM"}
{"structure_string": "CC(C)(C)OC(=O)N1CCC(NC(=O)c2sc3cc(OC4CCN(c5ccc(C(F)(F)F)cc5)CC4)ccc3c2Cl)CC1", "result": "1000 to 5000 nM"}
{"structure_string": "O=C(NC1CCNCC1)c1cc2cc(OC3CCN(c4ccc(C(F)(F)F)cc4)CC3)ccc2o1", "result": "> 10000 nM"}
{"structure_string": "Cc1c(C(=O)NC2CCN(Cc3ccccc3C#N)CC2)oc2cc(OC3CCN(c4ccc(C(F)(F)F)cc4)CC3)ccc12", "result": "< 100 nM"}

In the following, a different compound is considered.
# EC50 (compound: COC(=O)c1ccc(CN2CCC(NC(=O)c3ccc(OC4CCN(c5ccc(C(F)(F)F)cc5)CC4)cn3)CC2)cc1 ) is < 100 nM

* * *

target: AMPK; assay: AMPK activation, enzyme-linked immunosorbent assay; assay type: biochemical; conditions: compounds of Table 3 (Table 8)
quantity_kind: EC50

{"compound": "N#Cc1ccc(C(=O)N2CC3CC2CN3C(=O)c2nc3ccc(OC4CCN(c5ccc(C(F)(F)F)cc5)CC4)cc3o2)cc1 (stereo not shown)", "result": "< 100 nM"}
{"compound": "N#Cc1ccc(C(=O)N2CCC(NC(=O)c3nc4ccc(OC5CCN(c6ccc(C(F)(F)F)cc6)CC5)cc4o3)CC2)cc1", "result": "< 100 nM"}
{"compound": "N#Cc1ccc(CN2CCC(NC(=O)c3cnc(OC4CCN(c5ccc(C(F)(F)F)cc5)CC4)s3)CC2)cc1", "result": "< 100 nM"}
{"compound": "CC(C)(C)OC(=O)N1CCC(NC(=O)c2nc3ccc(OC4CCN(c5ccc(C(F)(F)F)cc5)CC4)cc3o2)CC1", "result": "< 100 nM"}

Short answer on AMPK for N#Cc1ccc(CN2CCC(NC(=O)c3ccc4c(c3)CN(Cc3ccc(C#N)cc3)CC4)CC2)cc1 , EC50: < 100 nM

Short answer on AMPK for N#Cc1ccc(CN2CCC(NC(=O)c3cnc(OC4CCN(Cc5ccc(C(F)(F)F)cc5)CC4)s3)CC2)cc1 , EC50: < 100 nM

Short answer on AMPK for N#Cc1ccc(CN2CCC(NC(=O)c3ccc(C(=O)NC4CCN(Cc5ccc(C(F)(F)F)cc5)CC4)cc3)CC2)cc1 , EC50: < 100 nM

* * *

target: AMPK; test: AMPK activation, enzyme-linked immunosorbent assay; type: biochemical; conditions: compounds of Table 1 (Table 6)
pEC50: −log10 of the molar value.
quantity_kind: pEC50

# pEC50 (compound: CC(C)(C)OC(=O)N1CCC(NC(=O)c2cc3ccc(OC4CCN(c5ccc(C(F)(F)F)cc5)CC4)cc3s2)CC1 [1-140] ) is 6.00 to 6.30

# pEC50 (compound: O=C(NC1CCNCC1)c1sc2cc(OC3CCN(c4ccc(C(F)(F)F)cc4)CC3)ccc2c1Cl [1-148] ) is < 5.00

# pEC50 (compound: O=C(NC1CCN(Cc2ccncc2)CC1)c1cc2cc(OC3CCN(c4ccc(OC(F)(F)F)cc4)CC3)ccc2o1 [1-78] ) is > 7.00

# pEC50 (compound: O=C(NC1CCN(Cc2ccncc2)CC1)c1cc2ccc(OC3CCN(c4ccc(OC(F)(F)F)cc4)CC3)cc2o1 [1-88] ) is > 7.00

# pEC50 (compound: CC(C)(C)OC(=O)NCCCNC(=O)c1ccc(OC2CCN(c3ccc(C(F)(F)F)cc3)CC2)cn1 [1-49] ) is > 7.00

* * *

target: AMPK; test: AMPK activation, enzyme-linked immunosorbent assay; assay type: biochemical; details: compounds of Table 5 (Table 10)
pEC50: −log10 of the molar value.
quantity_kind: pEC50

Please review the following examples before continuing.
{"structure_string": "O=C(NC1CCN(Cc2ccccc2)CC1)c1ccc(OC2CCN(Cc3ccc4c(c3)OCCO4)CC2)c(Cl)c1", "measured_on": "AMPK", "pEC50": "> 6.00"}
{"structure_string": "O=C(NC1CCN(Cc2ccccc2)CC1)c1ccc(OC2CCNCC2)c(Cl)c1", "measured_on": "AMPK", "pEC50": "< 4.00"}
{"structure_string": "CC(C)(C)c1ccc(CN2CCC(Oc3ccc(C(=O)NC4CCN(Cc5ccccc5)CC4)cc3F)CC2)cc1", "measured_on": "AMPK", "pEC50": "> 6.00"}
{"structure_string": "O=C(NC1CCN(Cc2ccccc2)CC1)c1cccc(OC2CCN(Cc3ccccc3)CC2)c1", "measured_on": "AMPK", "pEC50": "4.30 to 4.70"}
{"structure_string": "N#Cc1ccc(CN2CCC(Oc3ccc(C(=O)NC4CCN(Cc5ccccc5)CC4)c(Cl)c3)CC2)cc1", "measured_on": "AMPK", "pEC50": "> 6.00"}
{"structure_string": "N#Cc1ccc(N2CCC(Oc3cccc(C(=O)NC4CCN(Cc5ccccc5)CC4)c3)CC2)cc1", "measured_on": "AMPK", "pEC50": "> 6.00"}

# pEC50 (compound: COc1cc(C(=O)NC2CCN(Cc3ccccc3)CC2)ccc1OC1CCN(c2ccco2)CC1 ) is 5.00 to 6.00

# pEC50 (compound: N#Cc1ccc(CN2CCC(Oc3ccc(C(=O)NC4CCN(Cc5ccccn5)CC4)cc3)CC2)cc1 ) is > 6.00

* * *

target: AMPK; assay: AMPK activation, enzyme-linked immunosorbent assay; assay type: biochemical; settings: compounds of Table 1 (Table 6)
pEC50: −log10 of the molar value.
quantity_kind: pEC50

{"molecule": "FC(F)(F)c1ccc(N2CCC(Oc3ccc4c(c3)CCC4NC3CCNCC3)CC2)cc1 (stereo not shown)", "pEC50": "5.30 to 6.00"}
{"molecule": "CC(C)(C)OC(=O)N1CCC(NS(=O)(=O)c2ccc(OC3CCN(c4ccc(C(F)(F)F)cc4)CC3)nc2)CC1", "pEC50": "5.30 to 6.00"}
{"molecule": "CC(C)(C)OC(=O)N1CC[C@H](NC(=O)c2cc3cc(OC4CCN(Cc5ccc(Cl)cc5)CC4)ccc3o2)C1", "pEC50": "5.30 to 6.00"}
{"molecule": "CC(C)(C)OC(=O)N1CCC(NC(=O)c2cc3cc(OC4CCN(c5ccc(C(F)(F)F)cc5)CC4)ccc3s2)CC1", "pEC50": "> 7.00"}
{"molecule": "O=C(N[C@@H]1CCN(Cc2cccnc2)C1)c1cc2cc(OC3CCN(c4ccc(C(F)(F)F)cc4)CC3)ccc2o1", "pEC50": "6.30 to 7.00"}
{"molecule": "N#Cc1ccc(CN2CCC(NC(=O)c3ccc(OC4CCN(c5ccc(C(F)(F)F)cc5)CC4)cn3)CC2)cc1", "pEC50": "> 7.00"}
{"molecule": "O=C(NC1CCN(Cc2ccncc2)CC1)c1cc2cc(OC3CCN(c4ccc(OC(F)(F)F)cc4)CC3)ccc2s1", "pEC50": "> 7.00"}
{"molecule": "N#Cc1ccc(N2CCC(Oc3ccc(S(=O)(=O)NC4CCN(Cc5ccncc5)CC4)cn3)CC2)cc1", "pEC50": "6.30 to 7.00"}
{"molecule": "CN(C(=O)c1cc2cc(OC3CCN(c4ccc(C(F)(F)F)cc4)CC3)ccc2o1)C1CCN(Cc2cccnc2)CC1", "pEC50": "> 7.00"}
{"molecule": "Cc1c(C(=O)NC2CCN(Cc3cccc(C#N)c3)CC2)oc2cc(OC3CCN(c4ccc(C(F)(F)F)cc4)CC3)ccc12", "pEC50": "> 7.00"}

Short answer on AMPK for O=C(NC1CCN(Cc2cccnc2)CC1)c1ccc(OC2CCN(c3ccc(C(F)(F)F)cc3)CC2)cn1 , pEC50: > 7.00

Short answer on AMPK for CN(C(=O)c1cc2cc(OC3CCN(c4ccc(C(F)(F)F)cc4)CC3)ccc2o1)C1CCN(C(=O)OC(C)(C)C)CC1 , pEC50: 5.30 to 6.00

* * *

target: AMPK; experiment: AMPK activation, enzyme-linked immunosorbent assay; assay type: biochemical; settings: compounds of Table 3 (Table 8)
quantity_kind: EC50

Please review the following examples before continuing.
{"compound": "N#Cc1ccc(CN2CCC(NC(=O)c3cnc(OC4CCN(c5ccc(C(F)(F)F)cc5)CC4)cn3)CC2)cc1 [3-22]", "EC50": "< 100 nM"}
{"compound": "N#Cc1ccc(CN2CC3CC2CN3C(=O)c2nc3ccc(OC4CCN(c5ccc(C(F)(F)F)cc5)CC4)cc3o2)cc1 (stereo not drawn) [3-10]", "EC50": "100 to 1000 nM"}
{"compound": "N#Cc1ccc(CN2CCc3ccc(C(=O)NC4CCN(Cc5ccc(C(F)(F)F)cc5)CC4)cc3C2)cc1 [3-39]", "EC50": "1000 to 10000 nM"}
{"compound": "NC(=O)c1ccc(CN2CC3CC2CN3C(=O)c2nc3ccc(OC4CCN(c5ccc(C(F)(F)F)cc5)CC4)cc3o2)cc1 (stereo not drawn) [3-9]", "EC50": "100 to 1000 nM"}
{"compound": "N#Cc1ccc(CN2CCC(NC(=O)c3ccc(C(=O)N4CCN(c5ccc(Cl)cc5)CC4)cc3)CC2)cc1 [3-29]", "EC50": "10000 to 100000 nM"}

# EC50 (compound: O=C(NC1CCN(Cc2cccnc2)CC1)c1ccc2c(c1)CN(Cc1ccc(F)cc1)CC2 [3-35] ) is 1000 to 10000 nM
